molecular target: AgBzz1-D2; test: SPOT peptide array binding signal intensity (averaged, normalized) (arbitrary units (background-subtracted, floor 0; scale differs between SH3 domains)); higher = stronger binding of the SH3 domain to the peptide
Criterion: SPOT peptide array binding signal intensity meeting or surpassing 40. Met: rule met. Not met: rule not met.

## Input Given the entry `VSKLRSPNTPRRLRK` , answer whether its SPOT peptide array binding signal intensity meets or surpasses 40.
## Output rule met

## Input Given the entry `YVRRRPRVRLEPLLS` , answer whether its SPOT peptide array binding signal intensity meets or surpasses 40.
## Output rule met

## Input Given the entry `SGVRLPAPPPPPRRG` , answer whether its SPOT peptide array binding signal intensity meets or surpasses 40.
## Output rule met

## Input Given the entry `KMSRSPPRPPSLKII` , answer whether its SPOT peptide array binding signal intensity meets or surpasses 40.
## Output rule not met

## Input Given the entry `PKRRAPPPVPKKPSS` , answer whether its SPOT peptide array binding signal intensity meets or surpasses 40.
## Output rule met

## Input Given the entry `DLFKPLPEPPTELGR` , answer whether its SPOT peptide array binding signal intensity meets or surpasses 40.
## Output rule not met

## Input Given the entry `PPIPNAPLSPAPAVP` , answer whether its SPOT peptide array binding signal intensity meets or surpasses 40.
## Output rule not met

## Input Given the entry `PPIPIVPSSPAPPLP` , answer whether its SPOT peptide array binding signal intensity meets or surpasses 40.
## Output rule not met

## Input Given the entry `TSFKGRPKPPKTLKH` , answer whether its SPOT peptide array binding signal intensity meets or surpasses 40.
## Output rule not met

## Input Given the entry `TYNRTAFQIPGDQSI` , answer whether its SPOT peptide array binding signal intensity meets or surpasses 40.
## Output rule not met

## Input Given the entry `VRTRRRPPPPPIPST` , answer whether its SPOT peptide array binding signal intensity meets or surpasses 40.
## Output rule met

## Input Given the entry `RKLRTVPGVPLIHLT` , answer whether its SPOT peptide array binding signal intensity meets or surpasses 40.
## Output rule not met

## Input Given the entry `APPPPPRRATPEKKP` , answer whether its SPOT peptide array binding signal intensity meets or surpasses 40.
## Output rule not met

## Input Given the entry `RRRDFGAPANKRPRR` , answer whether its SPOT peptide array binding signal intensity meets or surpasses 40.
## Output rule not met

## Input Given the entry `RPPRPPPKPLHLRTE` , answer whether its SPOT peptide array binding signal intensity meets or surpasses 40.
## Output rule met

## Input Given the entry `FIRKRAPTPPAPSRS` , answer whether its SPOT peptide array binding signal intensity meets or surpasses 40.
## Output rule met

## Input Given the entry `PLQSKIPMLPSRRTM` , answer whether its SPOT peptide array binding signal intensity meets or surpasses 40.
## Output rule not met

## Input Given the entry `PSPSSSPPPIPKTAN` , answer whether its SPOT peptide array binding signal intensity meets or surpasses 40.
## Output rule not met

## Input Given the entry `NNNKMRPHLPPLSSG` , answer whether its SPOT peptide array binding signal intensity meets or surpasses 40.
## Output rule not met

## Input Given the entry `RRRRRPHRIERPLSN` , answer whether its SPOT peptide array binding signal intensity meets or surpasses 40.
## Output rule met

## Input Given the entry `IKKRNKIRLPSGSPE` , answer whether its SPOT peptide array binding signal intensity meets or surpasses 40.
## Output rule not met

## Input Given the entry `RMVRRRPLRVQFSAR` , answer whether its SPOT peptide array binding signal intensity meets or surpasses 40.
## Output rule met

## Input Given the entry `APKREAPKPPANTSP` , answer whether its SPOT peptide array binding signal intensity meets or surpasses 40.
## Output rule not met

## Input Given the entry `PSTMDFPKLPSFQNS` , answer whether its SPOT peptide array binding signal intensity meets or surpasses 40.
## Output rule not met

## Input Given the entry `LLIRWLILMPLVGSR` , answer whether its SPOT peptide array binding signal intensity meets or surpasses 40.
## Output rule met

## Input Given the entry `NMLSRPRLAKLPSIR` , answer whether its SPOT peptide array binding signal intensity meets or surpasses 40.
## Output rule not met

## Input Given the entry `QPWTDQFEKLEKEVS` , answer whether its SPOT peptide array binding signal intensity meets or surpasses 40.
## Output rule not met

## Input Given the entry `RRLRDKYKLPIVDAD` , answer whether its SPOT peptide array binding signal intensity meets or surpasses 40.
## Output rule met
